# target_or_system: T1, human BCMA protein (human, UniProt Q02223 1-54, limits assumed)
# T1 sequence: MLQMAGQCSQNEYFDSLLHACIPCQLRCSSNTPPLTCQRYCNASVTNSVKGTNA
# assay: affinity to human BCMA protein, method not stated
measured_quantity: pKd
In textbook form, pKd equals minus log to base ten of the concentration in mol/L.

The cases that follow already have their pKd on record.
{"binder": "BCMA targeting trispecific protein 01F10 (other, trispecific; not shown: the C-terminal 6xHis tag follows those missing domains and is left out) VHH: EVQLVESGGGLVQPGRSLTLSCAASSNIFSISPMGWYRQAPGKQRELVAAIHGESTLYADSVKGRFTISRDNAKNSIYLQMNSLRPEDTALYYCNKVPWGDYHPRNVTWGQGTQVTVSS", "quantitative_readout": 7.84}
{"binder": "BCMA targeting trispecific protein 01A07 (other, trispecific; not shown: the C-terminal His6 follows those missing domains and is left out) VHH: EVQLVESGGGLVQPGRSLTLSCAASTNISSISPMGWYRQAPGKQRELVAAIHGTSTLYADSVKGRFTISRDNAKNSIYLQMNSLRPEDTALYYCNKVPWGDYHPGNVYWGQGTQVTVSS", "quantitative_readout": 8.16}
{"binder": "BCMA targeting trispecific protein 01H10 (other, trispecific; not shown: The C-terminal 6xHis tag is left out because it follows these missing domains) VHH: EVQLVESGGGLVQPGRSLTLSCAASTNIPSISPMGWYRQAPGKQRELVAAIHGESTLYADSVKGRFTISRDNAKNSIYLQMNSLRPEDTALYYCNKVPWGDYHPRNVYWGQGTQVTVSS", "quantitative_readout": 7.61}

The reported value for BCMA targeting trispecific protein 02B04 (other, trispecific; not shown: the C-terminal 6xHis tag follows those missing domains and is left out) VHH: EVQLVESGGGLVQPGRSLTLSCAASTNIFSTSPMGWYRQAPGKQRELVAAIHGFSTIYADSVKGRFTISRDNAKNSIYLQMNSLRPEDTALYYCNKVPWGDYHPLNVYWGQGTQVTVSS in terms of pKd is 7.82

The reported value for BCMA targeting trispecific protein 01A06 (other, trispecific; not shown: the C-terminal 6xHis tag follows those missing domains and is left out) VHH: EVQLVESGGGLVQPGRSLTLSCAASTNIFSIRPMGWYRQAPGKQRELVAAIHGFSTVYADSVKGRFTISRDNAKNSIYLQMNSLRPEDTALYYCNKVPWGDYHPRNVYWGQGTQVTVSS in terms of pKd is 7.80

The reported value for BCMA targeting trispecific protein 01F09 (other, trispecific; not shown: anti-albumin domain, anti-CD3 domain and the linkers of the trispecific; the C-terminal His6 that follows them is left out) VHH: EVQLVESGGGLVQPGRSLTLSCAASTNISSISPMGWYRQAPGKQRELVAAIHGHSTLYADSVKGRFTISRDNAKNSIYLQMNSLRPEDTALYYCNKVPWGRYHPRNVYWGQGTQVTVSS in terms of pKd is 7.28

The reported value for BCMA targeting trispecific protein 01G04 (other, not shown: large carriers; small tags and cut ends, trispecific) VHH: EVQLVESGGGLVQPGRSLTLSCAASTNIDSISPMGWYRQAPGKQRELVAAIHGNSTLYADSVKGRFTISRDNAKNSIYLQMNSLRPEDTALYYCNKVPWGDYHPRMVYWGQGTQVTVSS in terms of pKd is 7.93

The reported value for BCMA targeting trispecific protein 01C08 (other, not shown: large carriers; small tags and cut ends, trispecific) VHH: EVQLVESGGGLVQPGRSLTLSCAASTNIFSNSPMGWYRQAPGKQRELVAAIHGGSTLYADSVKGRFTISRDNAKNSIYLQMNSLRPEDTALYYCNKVPWGDYHPRNVHWGQGTQVTVSS in terms of pKd is 7.55
